Target: Human immunodeficiency virus type 1 integrase (Human immunodeficiency virus 1, UniProt Q7ZJM1)
Sequence (Q7ZJM1 whole entry): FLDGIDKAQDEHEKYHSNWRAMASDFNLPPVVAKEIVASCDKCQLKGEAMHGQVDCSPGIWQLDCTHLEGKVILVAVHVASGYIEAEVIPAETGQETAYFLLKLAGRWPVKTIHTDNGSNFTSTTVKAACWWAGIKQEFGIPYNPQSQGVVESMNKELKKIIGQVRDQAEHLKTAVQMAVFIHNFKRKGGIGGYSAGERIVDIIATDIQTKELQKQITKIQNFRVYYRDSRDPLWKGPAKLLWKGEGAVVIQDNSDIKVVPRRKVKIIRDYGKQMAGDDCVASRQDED
Experiment: Inhibitory activity against DNA strand transfer by HIV integrase
Field: pIC50. Provide a value for each of the compounds that follow.
// returns pIC50 (minus log10 of molar concentration), number only

IN: Would you mind telling me what pIC50 value was observed for CCOC(=O)C(C#N)C1NS(=O)(=O)c2cc(C)c(Cl)cc2S1 (stereo not given) ?
OUT: 3.95

IN: Another: Cc1cc(S(=O)(=O)Nc2nc(Nc3ccccc3)nn2C)c(S)cc1Cl
OUT: 4.80

IN: What do you have for Cc1cc2c(cc1Cl)SC(C1C(=O)NC(=O)NC1=O)NS2(=O)=O (stereo not given) ?
OUT: 4.22

IN: Request: Cc1cc(S(=O)(=O)Nc2nc3ccccc3[nH]2)c(S)cc1Cl
OUT: 4.36

IN: Likewise for CC1=NN(c2ccccc2)C(=O)C1/N=N/c1ccc(S(=O)(=O)Nc2scc(C)c2C)cc1 (stereo not given) ?
OUT: 3.97

IN: O=S(=O)(Nc1nccs1)c1ccc(/N=N/c2cnc(O)c(O)c2)cc1 ?
OUT: 4.68

IN: Then what about the compound O=S(=O)(Nc1nnc2n1-c1ccccc1CC2)c1ccc(Cl)cc1S ?
OUT: 4.71

IN: Can you check Cc1cc(S(=O)(=O)Nc2nnc3cnc4ccccc4n23)c(S)cc1Cl next?
OUT: 5.08

IN: Also check Cc1cc(S(=O)(=O)Nc2nc3ccccc3nc2-c2ccc(Cl)cc2)c(S)cc1Cl
OUT: 4.92

IN: Again, but for Cc1ccc(-n2cnnc2NS(=O)(=O)c2cc(C(=O)Nc3ccc(Cl)cc3)c(Cl)cc2S)cc1
OUT: 5.40

Origin of measurements: ChEMBL document CHEMBL1148381
